# Tested on: Caco-2
# measurement protocol: drug sensitivity score (DSS) for viability; higher = more toxic; extreme values may be limits of the assay
# test settings: 72 h
quantity kind: drug sensitivity score
Answers are plain numbers.

# entry smiles, drug sensitivity score
measured = [
    ("O/N=C/c1ccc(-c2ccc(O)c(F)c2)c(Cl)c1O", 0.8),
    ("CC(C)C[C@H](NC(=O)[C@H](Cc1ccccc1)NC(=O)c1cnccn1)B(O)O", 38.6),
]

Turning now to a further molecule:
Data request: Entry `CCOC(=O)c1c(O)nc2cccc3c2c1-c1ccccc1C3=O` : reported drug sensitivity score = ?
Data returned: 0

* * *

# Test system: Calu-3
# measurement protocol: cell viability relative to DMSO; higher = less toxic
# test settings: 72 h; 10 nM
quantity kind: cell viability (%)
Give bare numbers, in %.

# entry smiles, observed value
data = [
    ("O=C1Nc2ccccc2/C1=C1/Nc2ccccc2C1=O", 104),
    ("Oc1cc(O)cc(O)c1", 105),
    ("Nc1nc2ccc(Cl)cc2c2nc(-c3ccco3)nn12", 92.8),
    ("CNCc1ccc(-c2cc(-c3nc(-c4ccc(S(=O)(=O)C(C)C)cc4)cnc3N)on2)cc1", 93.2),
]

Let's switch to this compound now.
Data request: Identify the measured cell viability of `FC(F)(F)c1ccccc1-c1cc(C(F)(F)F)c2[nH]c(C3=NOC4(CCCCC4)C3)nc2c1` for Calu-3.
Data returned: 105
